Form field: AUC(0-inf) (one value per entry).
testDescription: Pharmacokinetic evaluation in rats
Type: in vivo, Male SD rats
conditionSummary: male, SD, rat, plasma, po, 10 mg/kg, Oral, 10 mg/kg, read-out: Area under curve AUC0-inf
Answer format: numeric, ng·h/mL implied, no suffix.

Study these solved cases before continuing.
>>> observed("NC[C@@]1(CC(=O)O)C2CC[C@H]3C[C@@H]2[C@@H]1C3 (single isomer, unassigned)")
14200
>>> observed("NCC1(CC(=O)O)C2CCC3CC2C1C3 (stereo not shown)")
13700
>>> observed("NC[C@@]1(CC(=O)O)[C@@H]2C[C@@H]3CC[C@H]1[C@H]2C3 (racemic)")
12900

The record that follows has no AUC(0-inf) shown yet.
Lookup: Form field: reported AUC(0-inf) of "NC[C@@]1(CC(=O)O)[C@@H]2C[C@H]3C[C@@H]2[C@@H]1C3"
Found: 23000

---

Form field: half-life (one value per entry).
testDescription: Pharmacokinetic evaluation in rats
Assay type: in vivo, Male SD rats
conditionSummary: male, SD, rat, plasma, po, 10 mg/kg, Oral, 10 mg/kg, read-out: Half-life t½ (converted)
Answer format: numeric, h implied, no suffix.

>>> observed("NC[C@@]1(CC(=O)O)C2CC[C@H]3C[C@@H]2[C@@H]1C3 (single isomer, unassigned) [Example 5]")
1.6
>>> observed("NC[C@@]1(CC(=O)O)[C@@H]2C[C@@H]3CC[C@H]1[C@H]2C3 (racemic) [Example 1]")
2.3
>>> observed("NCC1(CC(=O)O)C2CCC3CC2C1C3 (stereo not shown) [Example 6]")
1.4

The record that follows has no half-life shown yet.
Lookup: Form field: reported half-life of NC[C@@]1(CC(=O)O)[C@@H]2C[C@H]3C[C@@H]2[C@@H]1C3 [Example 7]
Found: 1.1

---

testDescription: Pharmacokinetic evaluation in rats
Assay type: in vivo, Male SD rats
conditionSummary: male, SD, rat, plasma, po, 10 mg/kg, Oral, 10 mg/kg, read-out: Blood Drug Level Cmax
Form field: Cmax (one value per entry).
Answer format: numeric, µg/mL implied, no suffix.

>>> observed("NC[C@@]1(CC(=O)O)[C@@H]2C[C@@H]3CC[C@H]1[C@H]2C3 (racemic)")
3
>>> observed("NCC1(CC(=O)O)C2CCC3CC2C1C3 (stereo not shown)")
3.71
>>> observed("NC[C@@]1(CC(=O)O)[C@@H]2C[C@H]3C[C@@H]2[C@@H]1C3")
9.14

The record that follows has no Cmax shown yet.
Lookup: Form field: reported Cmax of NC[C@@]1(CC(=O)O)C2CC[C@H]3C[C@@H]2[C@@H]1C3 (single isomer, unassigned)
Found: 4.49

---

testDescription: Pharmacokinetic evaluation in rats
Format: in vivo, Male SD rats
conditionSummary: male, SD, rat, plasma, iv, 5 mg/kg, I.V., 5 mg/kg, read-out: Half-life t½ (converted)
recordedEndpoint: half-life (h)
Answer format: numeric, h implied, no suffix.

Study these solved cases before continuing.
>>> observed("NC[C@@]1(CC(=O)O)[C@@H]2C[C@@H]3CC[C@H]1[C@H]2C3 (racemic) [Example 1]")
1.3
>>> observed("NC[C@@]1(CC(=O)O)[C@@H]2C[C@H]3C[C@@H]2[C@@H]1C3 [Example 7]")
1.2
>>> observed("NCC1(CC(=O)O)C2CCC3CC2C1C3 (stereo not shown) [Example 6]")
2.4

Lookup: Form field: reported half-life of NC[C@@]1(CC(=O)O)C2CC[C@H]3C[C@@H]2[C@@H]1C3 (single isomer, unassigned) [Example 5]
Found: 2.4

---

testDescription: Pharmacokinetic evaluation in rats
Type: in vivo, Male SD rats
conditionSummary: male, SD, rat, plasma, po, 10 mg/kg, Oral 10 mg/kg vs I.V. 5 mg/kg, read-out: Bioavailability F
recordedEndpoint: bioavailability (%)
Answer format: numeric, % implied, no suffix.

Study these solved cases before continuing.
>>> observed("NC[C@@]1(CC(=O)O)C2CC[C@H]3C[C@@H]2[C@@H]1C3 (single isomer, unassigned) [Example 5]")
87
>>> observed("NCC1(CC(=O)O)C2CCC3CC2C1C3 (stereo not shown) [Example 6]")
83.2
>>> observed("NC[C@@]1(CC(=O)O)[C@@H]2C[C@H]3C[C@@H]2[C@@H]1C3 [Example 7]")
97

Lookup: Form field: reported bioavailability of NC[C@@]1(CC(=O)O)[C@@H]2C[C@@H]3CC[C@H]1[C@H]2C3 (racemic) [Example 1]
Found: 95
